# credit: patent US20240116985A1

Attribute: chromatographic logD
test: CHI Log D procedure; format: physicochemical; settings: pH 7.4, CHI Log D
Write no unit; give the number alone.

CC[C@H](C)[C@@H]1NC(=O)[C@H](CC(=O)O)NC(=O)[C@]2(CC=CCCCC3(CCCC=CCCCCCC[C@@](C)(C(=O)N[C@@H](Cc4ccccc4)C(=O)N[C@@H](Cc4csc5ccccc45)C(=O)N[C@@H](Cc4c[nH]cn4)C(N)=O)NC(=O)[C@H](CCC(N)=O)NC(=O)[C@H](Cc4ccccc4)NC(=O)[C@H](C)NC(=O)[C@H](C)NC(=O)[C@H](CCC(=O)O)NC(=O)[C@H](CC(=O)O)NC3=O)NC1=O)CCCN2C(C)=O (stereo partly drawn) [I-471]
2.43

// field: chromatographic logD; key: CC(=O)N1CCC[C@]12CC=CCCCC1(CCCC=CCCCCOC(=O)N3CC[C@@](C(=O)N[C@@H](Cc4ccsc4)C(=O)N[C@@H](Cc4csc5ccccc45)C(=O)N[C@@H](CC(N)=O)C(=O)N[C@@H](C)C(N)=O)(C3)NC(=O)[C@H](CC(N)=O)NC(=O)[C@H](Cc3ccccc3)NC(=O)[C@H](C)NC(=O)[C@H](C)NC(=O)[C@H](CC(=O)O)NC(=O)[C@H](CC(=O)O)NC1=O)NC(=O)[C@H](CC(C)(C)C)NC(=O)[C@H](CC(=O)O)NC2=O (stereo partly drawn) [I-829] ; value = 2.08

Given item CC(=O)N1CCC[C@]12CC=CCCCC1(CCCC=CCCCOC(=O)N3CC[C@@](C(=O)N[C@@H](Cc4ccccc4Cl)C(=O)N[C@@H](Cc4csc5ccccc45)C(=O)N[C@@H](CO)C(N)=O)(C3)NC(=O)[C@H](CO)NC(=O)[C@H](Cc3ccccc3)NC(=O)[C@H](C)NC(=O)[C@H](C)NC(=O)[C@H](CC(N)=O)NC(=O)[C@H](CC(=O)O)NC1=O)NC(=O)[C@H](CC(C)(C)C)NC(=O)[C@H](CC(=O)O)NC2=O (stereo partly drawn) [I-1020] , the value recorded as its chromatographic logD is 2.49
